test_system: 14-3-3γ (Homo sapiens)
Construct: made in house; host or cells: E. coli NiCo21 (DE3)
test_method_notes: Isothermal titration calorimetry (ITC) of 14-3-3 binding to peptide
condition_label: Table S5; ITC, 25 °C; replicate 2
Where a SMILES comes first, the peptide text is derived from it. [ ]: non-standard residue; d: D form. ξ: configuration not given here. Phe(4-NO2) = N[C@@H](Cc1ccc([N+](=O)[O-])cc1)C(=O)O; ξAla(4-thiazolyl) = NC(Cc1cscn1)C(=O)O; pS = N[C@@H](COP(=O)(O)O)C(=O)O; β3hS = N[C@@H](CO)CC(=O)O; Nva = CCC[C@H](N)C(=O)O; βAla = NCCC(=O)O
value_type: ΔG (kcal/mol)
Numeric only. Scale: kcal/mol

{"columns": ["molecule", "ΔG (kcal/mol)"],
 "data": [
  ["CCC[C@H](NC(=O)[C@H](N)CCCCN)C(=O)N[C@@H](Cc1ccc([N+](=O)[O-])cc1)C(=O)NC(Cc1cscn1)C(=O)N[C@@H](COP(=O)(O)O)C(=O)N[C@@H](Cc1ccc([N+](=O)[O-])cc1)C(=O)N[C@@H](CO)CC(=O)NCCC(=O)N[C@@H](Cc1ccc(O)cc1)C(=O)N[C@@H](CCCCN)C(N)=O (stereo partly drawn) [5a] (H-[dK][Nva][Phe(4-NO2)][ξAla(4-thiazolyl)][pS][Phe(4-NO2)][β3hS][βAla]YK-NH2; N-terminus and C-terminus assumed)", -7.6]
]}

Kindly consider the entry below.
[Q] What does the data say about its ΔG? Entry: CCC[C@H](NC(=O)[C@H](N)CCCCN)C(=O)N[C@@H](Cc1ccc([N+](=O)[O-])cc1)C(=O)NC(Cc1cscn1)C(=O)N[C@@H](COP(=O)(O)O)C(=O)N[C@@H](C)C(=O)N[C@@H](CO)CC(=O)NCCC(=O)N[C@@H](Cc1ccc([N+](=O)[O-])cc1)C(=O)N[C@@H](CCCCN)C(N)=O (stereo partly drawn) [4c] (H-[dK][Nva][Phe(4-NO2)][ξAla(4-thiazolyl)][pS]A[β3hS][βAla][Phe(4-NO2)]K-NH2; N-terminus and C-terminus assumed)
[A] -8.3

* * *

test_system: 14-3-3γ (Homo sapiens, UniProt P61981)
Construct: made in house; host or cells: E. coli NiCo21 (DE3)
Sequence (P61981 whole entry): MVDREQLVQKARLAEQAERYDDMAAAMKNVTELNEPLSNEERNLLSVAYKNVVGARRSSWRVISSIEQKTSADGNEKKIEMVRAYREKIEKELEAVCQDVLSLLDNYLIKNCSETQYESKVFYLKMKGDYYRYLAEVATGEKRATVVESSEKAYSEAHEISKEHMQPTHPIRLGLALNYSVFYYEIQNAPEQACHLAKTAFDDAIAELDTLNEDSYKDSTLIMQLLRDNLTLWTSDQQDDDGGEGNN
test_method_notes: Fluorescence anisotropy (FA) binary binding study: 14-3-3 titrated to fluorescein-labelled peptide
condition_label: Table S3; KD / KD of previous peptide; replicate 3
Protocol: 14-3-3γ protein expression (FP/ITC experiments) A pPROEX HTb expression vector encoding the human 14-3-3 protein gamma (14-3-3γ) with an N-terminal his6-tag was transformed by heat shock into NiCo21 (DE3) competent cells. Single colonies were cultured in 50 mL LB medium (100 µg/mL ampicillin). After overnight incubation at 37 °C, cultures were transferred to 2 L TB media (100 µg/mL ampicillin, 1 mM MgCl2) and incubated at 37 °C until an OD600 nm of 0.8-1.2 was reached. […]
Where a SMILES comes first, the peptide text is derived from it. [ ]: non-standard residue; d: D form. The star is where a group is joined. ξ: configuration not given here. FITC = O=C1OC2(c3ccc(O)cc3Oc3cc(O)ccc32)c2ccc(NC(=S)*)cc21; Phe(4-NO2) = N[C@@H](Cc1ccc([N+](=O)[O-])cc1)C(=O)O; ξAla(4-thiazolyl) = NC(Cc1cscn1)C(=O)O; pS = N[C@@H](COP(=O)(O)O)C(=O)O; β3hS = N[C@@H](CO)CC(=O)O; Nva = CCC[C@H](N)C(=O)O; AEA = NCCOCC(=O)O; βAla = NCCC(=O)O
value_type: Fold change to previous

Guide cases for Fold change to previous, answers given:
{"columns": ["compound", "recorded_result"],
 "data": [
  ["CCC[C@H](NC(=O)[C@@H](CCCCN)NC(=O)COCCNC(=S)Nc1ccc2c(c1)C(=O)OC21c2ccc(O)cc2Oc2cc(O)ccc21)C(=O)N[C@@H](Cc1ccc([N+](=O)[O-])cc1)C(=O)NC(Cc1cscn1)C(=O)N[C@@H](COP(=O)(O)O)C(=O)N[C@@H](Cc1ccc([N+](=O)[O-])cc1)C(N)=O (stereo partly drawn) [2h] ({FITC-AEA}-[dK][Nva][Phe(4-NO2)][ξAla(4-thiazolyl)][pS][Phe(4-NO2)]-NH2)", "3,19"],
  ["CCC[C@H](NC(=O)[C@@H](CCCCN)NC(=O)COCCNC(=S)Nc1ccc2c(c1)C(=O)OC21c2ccc(O)cc2Oc2cc(O)ccc21)C(=O)N[C@@H](Cc1ccc([N+](=O)[O-])cc1)C(=O)NC(Cc1cscn1)C(=O)N[C@@H](COP(=O)(O)O)C(=O)N[C@@H](Cc1ccc([N+](=O)[O-])cc1)C(=O)N[C@@H](CO)CC(=O)NCCC(N)=O (stereo partly drawn) [2f] ({FITC-AEA}-[dK][Nva][Phe(4-NO2)][ξAla(4-thiazolyl)][pS][Phe(4-NO2)][β3hS][βAla]-NH2)", "12,93"]
]}

[Q] // fetch 14-3-3γ (Homo sapiens, UniProt P61981) Fold change to previous for CCC[C@H](NC(=O)[C@@H](CCCCN)NC(=O)COCCNC(=S)Nc1ccc2c(c1)C(=O)OC21c2ccc(O)cc2Oc2cc(O)ccc21)C(=O)N[C@@H](Cc1ccc([N+](=O)[O-])cc1)C(=O)NC(Cc1cscn1)C(=O)N[C@@H](COP(=O)(O)O)C(=O)N[C@@H](Cc1ccc([N+](=O)[O-])cc1)C(=O)N[C@@H](CO)CC(=O)NCCC(=O)N[C@@H](Cc1ccc([N+](=O)[O-])cc1)C(N)=O (stereo partly drawn) [2e] ({FITC-AEA}-[dK][Nva][Phe(4-NO2)][ξAla(4-thiazolyl)][pS][Phe(4-NO2)][β3hS][βAla][Phe(4-NO2)]-NH2)
[A] 3,98
